B1: CPEB3 Ribozyme (parent)
chain: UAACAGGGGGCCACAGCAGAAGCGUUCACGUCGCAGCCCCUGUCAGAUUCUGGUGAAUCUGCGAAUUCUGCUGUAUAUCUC

Variants of: B1
TEST METHOD NOTES: self-cleavage, relative activity (ratio to wild type); higher = more cleavage; in vitro, sequencing
Decision: self-cleavage compared against 0.3; not below it gives Yes, below it gives No.

Solved entries:
Reported self-cleavage at or above 0.3? G16U U26C No

Next: A5U U67G Yes

Next: C17U U48A No

Next: G52A U76C Yes

Next: A57U C79G Yes

---
Reported self-cleavage at or above 0.3? A21U U54C No

Next: U26C C50U No

Next: G6A A15U No

Next: A35U A56U Yes

Next: G42U U58A No
